Molecular target: BRD4^Short (Homo sapiens)
Construct: Western blot data for BET, CRBN and VHL protein levels; endogenous in cells; host or cells: HEK293 (ATCC)
Assay: Western blot dose-response degradation in HEK293 cells
Assay type: cell-based
Conditions: 6 h, mean ± S.E.M. of three experiments, values marked b mean ± S.D. of two
Kindly state DC50 for each of the entries shown.
Please provide the amount together with its unit, number first.

Cc1ncsc1-c1ccc(CNC(=O)[C@@H]2C[C@@H](O)CN2C(=O)[C@@H](NC(=O)COCC(C)(COCCOCCOCCOC(=O)C[C@@H]2N=C(c3ccc(Cl)cc3)c3c(sc(C)c3C)-n3c(C)nnc32)COCCOCCOCCN2CCN(c3cccc4c3C(=O)N(C3CCC(=O)NC3=O)C4=O)CC2)C(C)(C)C)cc1 (mixture of isomers); 15 nM
Cc1ncsc1-c1ccc(CNC(=O)[C@@H]2C[C@@H](O)CN2C(=O)[C@@H](NC(=O)COCC(C)(COCCOCCOCCOC(=O)C[C@@H]2N=C(c3ccc(Cl)cc3)c3c(sc(C)c3C)-n3c(C)nnc32)COCCOCCOCCN2CCN(c3cc4c(cc3F)C(=O)N(C3CCC(=O)NC3=O)C4=O)CC2)C(C)(C)C)cc1 (mixture of isomers); 9.4 nM

Now, please, on to the next compound.
Report measured DC50 on BRD4^Short (Homo sapiens); entry: Cc1ncsc1-c1ccc([C@H](C)NC(=O)[C@@H]2C[C@@H](O)CN2C(=O)[C@@H](NC(=O)COCC(C)(COCCOCCOCCNc2cccc3c2C(=O)N(C2CCC(=O)NC2=O)C3=O)COCCOCCOCCOC(=O)C[C@@H]2N=C(c3ccc(Cl)cc3)c3c(sc(C)c3C)-n3c(C)nnc32)C(C)(C)C)cc1 (mixture of isomers)
5.9 nM

Source listed as paper PMC11638965.
